# Measured Target: APE1 (Homo sapiens, UniProt P27695)
# Construct: made in house
# Sequence (P27695 whole entry): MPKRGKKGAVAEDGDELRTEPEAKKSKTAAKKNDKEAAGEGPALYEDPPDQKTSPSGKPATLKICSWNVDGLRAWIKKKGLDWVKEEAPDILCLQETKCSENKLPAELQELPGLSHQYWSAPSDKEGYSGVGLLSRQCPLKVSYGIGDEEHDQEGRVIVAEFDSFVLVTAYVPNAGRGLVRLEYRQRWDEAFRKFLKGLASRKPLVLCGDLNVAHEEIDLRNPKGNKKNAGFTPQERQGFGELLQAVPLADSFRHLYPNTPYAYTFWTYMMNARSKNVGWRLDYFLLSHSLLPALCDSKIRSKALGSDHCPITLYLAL
# Test Summary: Fluorogenic kinetic qHTS APE1 incision assay (primary screen and retest of cherrypicked samples);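 further: purified APE1 cleaving a fluorophore/dark-quencher labelled 17-mer duplex DNA bearing a tetrahydrofuran AP site, fluorescence rise followed kinetically over the first 2 min, inhibition normalized to controls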
# Assay type: biochemical
# Run Parameters: retest of cherrypicked sample; read-out: APE1 Retest IC50
Reported Property: pIC50
Give bare numbers, as −log10 of the molar value.

Consider the worked cases shown below.
Compound	Experimental Value
Cc1cc(C)c2nc(-c3ccco3)cc(C(=O)O)c2c1	4.90
Cc1ccccc1N=C1NC(=O)/C(=C/c2cccn2-c2cccc(C(=O)O)c2)S1	4.95
Nc1c(/C=C2/C=CC(=O)C(O)=C2)c(=O)nc2sc(CC(=O)N3CCCC3)nn12	5.19
COc1cc(-c2nnc(COC(=O)c3ccc(C)o3)o2)cc(OC)c1OC	4.49

Give pIC50 for all compounds that follow.
1. COc1ccc(NC(=O)CN(C)C(=O)c2cccc(-n3cccc3)c2)cc1
2. N#C/C(=C/c1cccn1-c1cccc(C(=O)O)c1)c1ccc(Cl)cc1

1: 4.74; 2: 5.30

Hi team, please reply with pIC50 for each item in this list.
1. Nc1ccc(Nc2ccccc2)c(S(=O)(=O)O)c1
2. CC1CCc2c(sc(NC(=O)/C=C/c3cccs3)c2C(=O)O)C1 (stereo not drawn)
3. COc1ccc(N2Cc3cccc(C(=O)O)c3C2=O)cc1

[4.80, 4.34, 5.41]

###

Give pIC50 for every item shown.
# Measured Target: APE1 (Homo sapiens, UniProt P27695)
# Construct: made in house
# Test Summary: Fluorescence polarization (FP) displacement assay of APE1 binding to AP-DNA probe;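 further: TAMRA 5′-labeled duplex DNA with THF abasic site (5 nM) and APE1 (20 nM), Mg2+-free buffer, 15 min at room temperature, inhibition seen as lowered polarization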
# Run Parameters: read-out: FP IC50
pIC50: −log10 of the molar value.

Reference set, count: 2
Compound	Reported Property	Experimental Value
CCCSC1=N/C(=C\C=C\c2ccco2)C(=O)S1 [MLS000114057]	pIC50	< 4.24
COc1ccc2c(c1)c(=O)oc1cc(OCC(=O)N3CCc4ccccc4C3)ccc12 [MLS000594187]	pIC50	< 4.24

Give one value of pIC50 per listed compound.
1. O=C(NN1C(=O)/C(=C/C=C/c2ccco2)SC1=S)c1ccncc1 [MLS000762704]
2. COc1ccc2nc3cc(Cl)ccc3c(Nc3cc(CN4CCCC4)c(O)c(CN4CCCC4)c3)c2n1 [MLS001306480, pyronaridine, reference compound]

< 4.24
4.49

###

# System: HeLa cells
# Test Summary: MMS potentiation assay (CellTiter Glo viability)
# Format: cell-based, human
# Design: key: N.A., no activity observed; P, positive; I, inconclusive; N.T., not tested
# Run Parameters: potentiation of the genotoxic effect of methylmethane sulfonate
Reported Property: MMS Assay

Compound	MMS Assay
O=C(O[C@@H]1OC2COC(=O)c3cc(O)c(O)c(O)c3-c3c(cc(O)c(O)c3O)C(=O)O[C@@H]([C@H]1O)[C@@H]2O)c1cc(O)c(O)c(O)c1 [MLS000563483]	I
COc1c(-c2ccc(O)cc2)oc2cc(O)cc(O)c2c1=O [MLS000877008]	I
CC1CCc2c(sc(NC(=O)/C=C/c3cccs3)c2C(=O)O)C1 (centres unmarked) [MLS000974674]	P
Cn1cccc1/C=C1\C(=O)NC(=O)N(Cc2ccco2)C1=O [MLS000677191]	I
CC(=O)Oc1cc(C(=O)OCC(=O)N2CCc3ccccc3C2)cc(OC(C)=O)c1OC(C)=O [MLS002252117]	I

Give me MMS Assay for each of these compounds, listed below.
1. COc1ccc(Cc2nnc(NC(=O)Cc3cccs3)s2)cc1OC [MLS000115025]
2. COc1cc2c(ccc3cc(OC)c(OC)c(O)c32)cc1O [MLS000863573]
3. O=C1/C(=C/C=C/c2ccco2)SC(=S)N1NS(=O)(=O)c1ccccc1 [MLS000778639]

1: P; 2: P; 3: I
